- Test system: MT4
- Assay Text: Cytotoxicity against human MT4 cells by MTT assay
- Type: cell-based
Response field label: string, one of yes (EC50 strictly below 30 µM) or no.

[[record]]
substance_smiles = "COc1cccc2c1c(C(=O)/C=C(\\O)C(=O)O)cn2Cc1c(F)cccc1Cl"
group = "no"

[[record]]
substance_smiles = "CCOC(=O)/C(O)=C/C(=O)c1cn(Cc2ccccc2Cl)c2cccc(OC)c12"
group = "no"

[[record]]
substance_smiles = "COc1cccc2c1c(C(=O)/C=C(\\O)C(=O)O)cn2Cc1ccc(F)cc1Cl"
group = "no"

[[record]]
substance_smiles = "CCOC(=O)/C(O)=C/C(=O)c1cn(Cc2ccc(Cl)cc2F)c2cccc(OC)c12"
group = "yes"

[[record]]
substance_smiles = "CCOC(=O)/C(O)=C/C(=O)c1cn(Cc2cccc(Cl)c2)c2cccc(OC)c12"
group = "no"

[[record]]
substance_smiles = "COc1cccc2c1c(C(=O)/C=C(\\O)C(=O)O)cn2Cc1ccc(Cl)cc1"
group = "no"

[[record]]
substance_smiles = "COc1cccc2c1c(C(=O)/C=C(\\O)C(=O)O)cn2Cc1ccc(Cl)cc1F"
group = "yes"


Q: Determine whether this molecule shows EC50 lower than 30 µM (ties excluded): COc1cccc2c1c(C(=O)/C=C(\O)C(=O)O)cn2Cc1cccc(F)c1Cl
Result: yes
